Target: UniProt P13051
Sequence (P13051 whole entry): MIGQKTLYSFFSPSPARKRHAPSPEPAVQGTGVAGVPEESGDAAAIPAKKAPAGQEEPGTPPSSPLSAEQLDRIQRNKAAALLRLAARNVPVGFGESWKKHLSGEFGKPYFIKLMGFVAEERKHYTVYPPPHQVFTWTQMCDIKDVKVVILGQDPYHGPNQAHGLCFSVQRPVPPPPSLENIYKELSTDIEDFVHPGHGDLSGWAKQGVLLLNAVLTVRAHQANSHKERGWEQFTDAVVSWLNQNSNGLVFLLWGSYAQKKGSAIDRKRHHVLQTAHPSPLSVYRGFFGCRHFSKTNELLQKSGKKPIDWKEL
Settings: Compound Concentration 1.0 uM, Hit No
Description: Inhibition of UNG by quantifying inhibition of UNG-mediated cleavage and dissociation of quenched duplex DNA oligonucleotides, measured as fluorescence at 594 nm. To generate a functional strand incision and increase turn-over this assay is coupled to APE1.
readout.label: inhibition (%)
Give the quantity in %, number only.

INSERT INTO measurements (cpd_smiles, numeric_result) VALUES
  ('C[C@@H]1CCN(C(=O)CC#N)C[C@@H]1N(C)c1ncnc2[nH]ccc12', 6.67),
  ('CCCOc1ccc([C@H]2[C@H](C(=O)O)[C@@H](c3ccc4c(c3)OCO4)CN2CC(=O)Nc2c(CC)cccc2CC)cc1', 6.95),
  ('Cc1ccc(NC(=O)Nc2cc(C(F)(F)F)ccc2F)cc1Nc1ccc2c(c1)NC(=O)/C2=C\c1ccc[nH]1', -3.3),
  ('Cc1c[nH]c2nccc(Oc3c(F)cc(Nc4cc(Cl)nc(N)n4)cc3F)c12', 4.99);

Enquiry: inhibition of OCCn1cc(-c2ccc3c(c2)CCC3=NO)c(-c2ccncc2)n1 on UniProt P13051?
Return: 2.27

Enquiry: One more compound: CN1CCN(C(=O)C(C)(C)c2ccc(C(=O)Nc3cn4cc(-c5cc(C(C)(C)C)cc(C(C)(C)C)c5)ccc4n3)cc2)CC1
Return: 3.16

Enquiry: One more compound: CN(c1ccnc(CNc2nc(Nc3ccc4c(c3)CC(=O)N4)ncc2C(F)(F)F)n1)S(C)(=O)=O
Return: 0.644

Enquiry: One more compound: CN(C)C(=O)Cn1cc(-c2ccc(-c3nnc4ccccn34)cc2)cn1
Return: 2.39

Enquiry: One more compound: CNC(=O)Nc1ccc2c(c1)[C@@]1(CC2)OC(=O)N(CC(=O)N(Cc2ccc(F)cc2)[C@@H](C)C(F)(F)F)C1=O
Return: 4.4

* * *

# Lookup of reported inhibition keyed by entry
Target: N-glycosylase/DNA lyase (Homo sapiens) (UniProt O15527)
Sequence (O15527 whole entry): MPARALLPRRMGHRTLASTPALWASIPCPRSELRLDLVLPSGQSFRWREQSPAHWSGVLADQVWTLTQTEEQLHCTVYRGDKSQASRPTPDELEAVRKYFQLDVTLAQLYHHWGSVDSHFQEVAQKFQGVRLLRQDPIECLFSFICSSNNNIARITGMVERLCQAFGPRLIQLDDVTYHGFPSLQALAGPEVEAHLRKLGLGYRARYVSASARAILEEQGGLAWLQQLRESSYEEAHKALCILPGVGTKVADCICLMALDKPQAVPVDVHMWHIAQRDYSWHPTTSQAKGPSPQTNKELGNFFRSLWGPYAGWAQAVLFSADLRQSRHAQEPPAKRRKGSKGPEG
Conditions: Compound Concentration 10.0 uM, Hit No
Description: Inhibition of OGG1 by quantifying inhibition of OGG1-mediated cleavage and dissociation of quenched duplex DNA oligonucleotides, measured as fluorescence at 594 nm. To generate a functional strand incision and increase turn-over this assay is coupled to APE1.
Give the quantity in %, number only.

INSERT INTO assay_data (compound, readout_label, numeric_result) VALUES
  ('Cc1nc(C#Cc2cccnc2)cs1', 'inhibition', -7.91);

Enquiry: Recorded inhibition for CN(C)C(=O)N1CC[C@H](NC2=Nc3cc(F)ccc3N(CC(F)F)c3ccc(Cl)cc32)C1 , please?
Return: -5.59

Enquiry: One more compound: O=C(O)c1ccc2c(c1)nc(Nc1cccc(Cl)c1)c1ccncc12
Return: 6.06

Enquiry: One more compound: Cn1cc(Cl)c2c(Oc3c(F)cc(Nc4cc(Cl)nc(N)n4)cc3F)ccnc21
Return: -9.66

Enquiry: One more compound: CCCNS(=O)(=O)Nc1ncnc(OCCOc2ncc(Br)cn2)c1-c1ccc(Br)cc1
Return: 2.2

Enquiry: One more compound: CCCCC[C@H](O)/C=C/[C@H]1[C@H](O)CC(=O)[C@@H]1CCCCCCC(=O)O
Return: -9.68

Enquiry: One more compound: CCN(CC)CCCCC1CCN(CC(=O)N2c3ccccc3C(=O)Nc3cccnc32)CC1
Return: -2.09

Enquiry: One more compound: CNc1nc(NCc2ccc(NS(C)(=O)=O)cc2Cl)cc(-c2ccccn2)n1
Return: 15

Enquiry: One more compound: CC(C)CCC[C@@H](C)[C@H]1CC[C@H]2[C@@H]3[C@H](O)C=C4C[C@@H](O)CC[C@]4(C)[C@H]3CC[C@]12C
Return: -2.82

Enquiry: One more compound: O=C1NCN(c2ccccc2)C12CCN(CC1COc3ccccc3O1)CC2 (stereo not drawn)
Return: -5.28

Enquiry: One more compound: Cc1cc(C)c(S(=O)(=O)N(Cc2ccc(-c3cccc(S(C)(=O)=O)c3)cc2)Cc2ccc(C(F)(F)F)o2)c(C)c1
Return: -3.9

Enquiry: One more compound: Cc1cc(OC2CCS(=O)(=O)CC2)cc(C)c1-c1cccc(COc2ccc(C(=O)O)c(F)c2)c1
Return: 31.5

Enquiry: One more compound: CCC(=O)N[C@H]1CC[C@@H](C(=O)N(C)c2ccc(-c3nc4ccccc4o3)cc2)C1
Return: -8.13

Enquiry: One more compound: C[N+]1(C)[C@@H]2C[C@@H](OC(=O)C(O)(c3cccs3)c3cccs3)C[C@H]1[C@@H]1O[C@@H]12
Return: -4.25

* * *

Molecular target: N-glycosylase/DNA lyase (Homo sapiens);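 further: OGG1 cleavage of a quenched duplex DNA oligonucleotide, coupled to APE1 for strand incision, read as fluorescence at 594 nm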
Details: Compound Concentration 10.0 uM, Hit No
*1 amine or outer side, *2 acyl side, *3 side chain or, on linkers, in order; H or OH if unused. Where a SMILES comes first, the peptide text is derived from it. Bridges are numbered along the chain shown (N, C = ends). X1 = O=C(CCC[*:2])[*:1]
# Lookup of reported inhibition keyed by entry
Give the quantity in %, number only.

Some compounds with known inhibition results, for comparison:
INSERT INTO results (compound, readout_label, numeric_result) VALUES
  ('CC(=O)Nc1nc(C)c(S(=O)(=O)Nc2ccc(C(O)(C(F)(F)F)C(F)(F)F)cc2)s1', 'inhibition', 9.77),
  ('CN1CCN(c2nc(N)c3ccccc3n2)CC1', 'inhibition', -6.52),
  ('CC[C@H](C)[C@@H]1NC(=O)[C@H](Cc2ccc(OC)cc2)NC(=O)CCCSC[C@@H](C(=O)N2CCC[C@H]2C(=O)N[C@@H](CC(C)C)C(=O)NCC(N)=O)NC(=O)[C@H](CC(N)=O)NC(=O)[C@H](CCC(N)=O)NC1=O (Y(Me)IQNCPLG-NH2; linker N-5 via X1)', 'inhibition', -9.58),
  ('COc1ccc(C(=O)N2CCN(C(=O)/C=C/c3ccc(Br)cc3)CC2)cc1', 'inhibition', -3.17),
  ('CCCCCCCC/C=C\CCCCCCCC(=O)NCc1ccc(O)c(OC)c1', 'inhibition', -7.56),
  ('O=C(NNS(=O)(=O)c1ccccc1F)c1cc(F)cc(-c2ccccn2)c1', 'inhibition', 3.57);

Enquiry: Recorded inhibition for Nc1nc(NCc2ccccc2)nc(-c2ccccc2CO)n1 , please?
Return: 4.21

Enquiry: One more compound: O=C(O)[C@@H]1[C@@H](Cn2nnc3ccccc3c2=O)CC[C@H]1C(=O)c1ccc(OCCC2CCOCC2)cc1
Return: 7.75

Enquiry: One more compound: C[C@@H](Cn1c(=O)[nH]/c(=N\c2ccc(Oc3ccccn3)cc2)n(Cc2ccc(Cl)cc2)c1=O)C(=O)O
Return: -4.95

Enquiry: One more compound: O=S(=O)(Nc1ccc(C(O)(C(F)(F)F)C(F)(F)F)cc1)c1cccs1
Return: 9.18

* * *

# Lookup of reported inhibition keyed by entry
Target: Endonuclease 8-like 1 (Homo sapiens) (UniProt Q96FI4);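 further: fluorescence at 594 nm from quenched duplex DNA oligonucleotides released by NEIL1 cleavage and strand separation, reported as reduction of this enzyme activity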
Sequence (Q96FI4 whole entry): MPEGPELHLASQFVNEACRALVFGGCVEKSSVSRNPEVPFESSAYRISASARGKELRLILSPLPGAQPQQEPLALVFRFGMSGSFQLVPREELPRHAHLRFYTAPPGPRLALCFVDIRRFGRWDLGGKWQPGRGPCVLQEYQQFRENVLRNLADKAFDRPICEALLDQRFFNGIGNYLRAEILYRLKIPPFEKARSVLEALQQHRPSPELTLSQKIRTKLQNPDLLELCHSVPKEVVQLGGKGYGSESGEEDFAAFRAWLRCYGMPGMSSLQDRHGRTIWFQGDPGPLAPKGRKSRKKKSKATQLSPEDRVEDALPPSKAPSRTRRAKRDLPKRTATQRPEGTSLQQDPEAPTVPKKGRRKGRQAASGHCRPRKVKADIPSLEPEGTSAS
Settings: Compound Concentration 10.0 uM, Hit No
Description: Inhibition of NEIL1 by quantifying inhibition of NEIL1-mediated cleavage and dissociation of quenched duplex DNA oligonucleotides, measured as fluorescence at 594 nm.
Give the quantity in %, number only.

Some compounds with known inhibition results, for comparison:
INSERT INTO results (compound, numeric_result) VALUES
  ('O=C(O)c1ccc(C(=O)N[C@@H](c2ccc(OC(F)(F)F)c(F)c2)c2ncccc2F)nc1', 5.2),
  ('N[C@@]1(C(=O)O)CO[C@H]2[C@H](C(=O)O)[C@H]21', -2.51),
  ('O=C(O)Cn1c(C(=O)Nc2nc(-c3ccccc3Cl)cs2)cc2ccccc21', -4.5),
  ('CNc1ncc2cc(-c3ccc(-c4ncccc4F)cc3Cl)c(=O)n(C[C@H]3OC[C@H](N)CO3)c2n1', 0.666),
  ('CCNC(=O)[C@H]1O[C@@H](n2cnc3c(N)nc(NCCc4ccc(CCC(=O)O)cc4)nc32)[C@H](O)[C@@H]1O', 3.42);

Enquiry: Recorded inhibition for CCCCC(=O)N(Cc1ccc(-c2ccccc2C(=O)O)cc1)c1ccccc1 , please?
Return: 1.79

Enquiry: One more compound: O=C(Nc1ccc(Cl)cc1)N[C@@H](Cc1ccccc1)C(=O)N1CCCCC1
Return: 0.898

Enquiry: One more compound: c1ccc2c(c1)CCC[C@H]2Nc1nc2ccccc2[nH]1
Return: 4.46

Enquiry: One more compound: FC(F)(F)c1ccccc1-c1cc(C(F)(F)F)c2[nH]c(C3=NOC4(CCCCC4)C3)nc2c1
Return: 0.00926

Enquiry: One more compound: OCCOCCN1CCN(C(c2ccccc2)c2ccc(Cl)cc2)CC1 (stereo not given)
Return: 4.39

Enquiry: One more compound: CCC1(C2=NCCN2)Cc2ccccc2O1 (stereo not given)
Return: -9.99

Enquiry: One more compound: CNc1nc(-c2ccc3c(N)n[nH]c3c2)cc(N2C[C@@H](C(=O)NC3CCCCC3)CC[C@H]2C)n1
Return: 3.84

* * *

# Lookup of reported inhibition keyed by entry
Target: G/T mismatch-specific thymine DNA glycosylase (Homo sapiens) (UniProt Q13569);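 further: human TDG cleavage of quenched duplex DNA oligonucleotides coupled to APE1, strand release read as fluorescence at 594 nm, inhibition of TDG activity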
Sequence (Q13569 whole entry): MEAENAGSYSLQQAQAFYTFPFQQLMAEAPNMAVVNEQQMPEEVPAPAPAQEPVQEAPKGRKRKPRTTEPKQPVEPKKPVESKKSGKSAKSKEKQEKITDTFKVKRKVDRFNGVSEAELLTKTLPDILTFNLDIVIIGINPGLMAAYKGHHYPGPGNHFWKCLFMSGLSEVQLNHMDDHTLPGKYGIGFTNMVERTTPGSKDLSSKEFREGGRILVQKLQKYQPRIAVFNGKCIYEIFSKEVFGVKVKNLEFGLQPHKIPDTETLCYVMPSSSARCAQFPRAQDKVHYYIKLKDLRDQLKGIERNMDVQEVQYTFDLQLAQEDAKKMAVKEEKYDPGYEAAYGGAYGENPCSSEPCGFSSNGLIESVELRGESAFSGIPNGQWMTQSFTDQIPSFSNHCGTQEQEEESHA
Settings: Compound Concentration 10.0 uM, Hit No
Description: Inhibition of TDG by quantifying inhibition of TDG-mediated cleavage and dissociation of quenched duplex DNA oligonucleotides, measured as fluorescence at 594 nm. To generate a functional strand incision and increase turn-over this assay is coupled to APE1.

Some molecules with known inhibition results, for comparison:
INSERT INTO assay_data (molecule, result) VALUES
  ('CC1=C(C#N)C(c2ccc3[nH]nc(C)c3c2)C(C#N)=C(C)N1', '72.9%'),
  ('O=C(NCc1cccnc1OCC(F)(F)F)c1cncc(-c2ccc(Cl)cc2)c1', '3.98%'),
  ('CN1CCC(C(=O)c2cccc(NC(=O)c3c(F)cc(F)cc3F)n2)CC1', '19.6%'),
  ('CC(/C=C1\SC(=S)N(CCCC(=O)Nc2ccc(C(=O)O)c(O)c2)C1=O)=C\c1ccccc1', '53%'),
  ('Cc1cc(NC(=O)Nc2ccccc2)n(-c2ccccc2)n1', '5.78%'),
  ('CSc1cc2c(cc1C(F)(F)F)N(C(=O)Nc1cccnc1)CC2', '11.2%');

Enquiry: Recorded inhibition for COc1ccc(COc2ccc(Cc3cnc(N)nc3N)cc2OC)cc1 , please?
Return: 46.5%

Enquiry: One more molecule: CCCCN(CCCC)C(=O)CN1C[C@@H](c2cc(OC)c3c(c2)OCO3)[C@H](C(=O)O)[C@H]1CC(C)(C)CCC
Return: 46%

Enquiry: One more molecule: CC(C)(C(=O)O)c1ccc(C(O)CCCN2CCC(C(O)(c3ccccc3)c3ccccc3)CC2)cc1 (stereo not given)
Return: 8.16%

Enquiry: One more molecule: O=C(NCCCn1ccnc1)c1cc2nc(-c3ccccc3)cc(-c3ccccc3)n2n1
Return: 44.7%
